The values you see were collected from the RNAGym collection of RNA variant scans (doi:10.7554/elife.90254).

B1: OR4K15 (parent)
chain: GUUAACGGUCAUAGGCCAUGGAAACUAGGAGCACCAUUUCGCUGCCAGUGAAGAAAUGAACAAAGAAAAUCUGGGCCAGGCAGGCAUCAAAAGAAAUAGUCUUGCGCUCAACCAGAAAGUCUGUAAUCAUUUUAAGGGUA

variants of: B1; test: self-cleavage, relative activity (ratio to wild type); higher = more cleavage; in vitro, sequencing; the parent is a self-cleaving ribozyme
Tag: 1 (yes) if measured self-cleavage is not below 1, 0 (no) if it is.

seq: GUUAACGGUCAUAGGCCAUGGAAACUAGGAGCACCAUUUCGCUGCCAGUGAAGAAAUGAACGAAGAAAAUCUGGCCCAGGCAGGCAUCAAAAGAAAUAGUCUUGCGCUCAACCAGAAAGUCUGUAAUCAUUUUAAGGGUA [A62G G75C]
qualitativeLabel: 0 (no)

*Q* Decide: self-cleavage of GUUAACGGUCAUAGGCCAUGGAAACUAGGAGCACCAUCUCGCUGCCAGCGAAGAAAUGAACAAAGAAAAUCUGGGCCAGGCAGGCAUCAAAAGAAAUAGUCUUGCGCUCAACCAGAAAGUCUGUAAUCAUUUUAAGGGUA [U38C U49C] >= 1?
*A* 1 (yes)

*Q* // inclusive: self-cleavage at least 1? input: GUUAACGGUCAUAGGCCAUGGAAACUAGGAGCACCAUUUCGCUGCCAGUGAAGAAAUGAACAAAGAAAAUCUGGGCCAGGCAGGCAACAAAAGAAAUAGUCUUGCGCUCAACCAGGAAGUCUGUAAUCAUUUUAAGGGUA [U87A A116G]
*A* 0 (no)

*Q* Please indicate if the recorded self-cleavage for GUUAACGGUCAUAGGCCAUGGAAACUAGGAGCACCAUUUCGCUGCCAGUGAAGGAAUGAACAAAGAAAAUCUGGGCCAGGCAGGCAUCAAAAGAAAUAGUCUUGCGCUCAACCAGAAAGUCUGUAAUCGUUUUAAGGGUA [A54G A129G] meets or exceeds 1.
*A* 0 (no)

*Q* I'd appreciate it if you could say whether GUUAACGGUCAUAGGCCAUGGAAACUAGGAGCACCAUUUCGCUGCCAGUGAAGAAAUGAACAAAGAAAAUCUUGGCCAGGCAGGCAUCAAAAGAGAUAGUCUUGCGCUCAACCAGAAAGUCUGUAAUCAUUUUAAGGGUA [G73U A95G] has self-cleavage at least equal to 1.
*A* 0 (no)

*Q* Hello, I need to know if GUUAACGGUCAUAGGCCAUGGAAACUAGGAGCACCAUUUCGCUGCCAGUGAAGAAAUGAACAAAGAAAAUCUGGGCCAGGCAGGCAUCAAAAGAAAUAGUCUCGCGCUCAUCCAGAAAGUCUGUAAUCAUUUUAAGGGUA [U103C A111U] has measured self-cleavage not below 1. Thanks!
*A* 0 (no)
